- MEASUREMENT_DESCRIPTION: Cell Titer Glo 2.0 cell viability assay
- ASSAY_CONDITIONS: human, K562 cells
Where a name gives a salt, the structure may show the parent alone.
Measured GI50 at 72 h, listed per entry.
QUANTITY_KIND: GI50 at 72 h

{"COMPOUND": "Cn1cc2cc(-c3nc4ncn(C5CCNCC5)c(=O)c4s3)c(O)cc2n1 [Compound 253, hydrochloride]", "REPORTED_MEASUREMENT": "> 10000 nM"}
{"COMPOUND": "COc1cc(-c2cc3ncn(C4CCNCC4)c(=O)c3s2)cnn1 [Compound 260]", "REPORTED_MEASUREMENT": "1000 to 10000 nM"}
{"COMPOUND": "Cc1c(O)c(-c2nc3ncn(C4CCNCC4)c(=O)c3s2)cc2cn(C)nc12 [Compound 336]", "REPORTED_MEASUREMENT": "1000 to 10000 nM"}
{"COMPOUND": "Cc1nc(-c2cc3ncn(C4CCNCC4)c(=O)c3s2)cc2cn(C)nc12 [Compound 271]", "REPORTED_MEASUREMENT": "1000 to 10000 nM"}
{"COMPOUND": "Cc1cn2cc(-c3nc4sc(C5CCN(C)CC5)cc4c(=O)[nH]3)cc(F)c2n1 [Compound 256]", "REPORTED_MEASUREMENT": "> 10000 nM"}
{"COMPOUND": "Cc1cn2cc(-c3cc(=O)n4nc(N5CCNC6(CC6)C5)sc4n3)cc(F)c2n1 [Compound 209]", "REPORTED_MEASUREMENT": "1000 to 10000 nM"}
{"COMPOUND": "Cc1cn2cc(-c3cc(=O)n4cc(N5CCNC6(CC6)C5)sc4n3)cc(F)c2n1 [Compound 207]", "REPORTED_MEASUREMENT": "> 10000 nM"}
{"COMPOUND": "Cc1cn2cc(-n3cnc4nc(N5CCN(C)CC5)sc4c3=O)cc(F)c2n1 [Compound 228]", "REPORTED_MEASUREMENT": "1000 to 10000 nM"}
{"COMPOUND": "Cc1cn2cc(-c3cc4ncn(C5CCNCC5(F)F)c(=O)c4s3)cc(F)c2n1 (centres unmarked) [Compound 274]", "REPORTED_MEASUREMENT": "> 10000 nM"}
{"COMPOUND": "Cc1cc(-c2nc3ncn(C4CCN(C)CC4)c(=O)c3s2)cc2cn(C)nc12 [Compound 234]", "REPORTED_MEASUREMENT": "100 to 1000 nM"}
{"COMPOUND": "Cc1cn2nc(-c3nc4ncn(C5CCNCC5)c(=O)c4s3)cc(C)c2n1 [Compound 231]", "REPORTED_MEASUREMENT": "1000 to 10000 nM"}
{"COMPOUND": "Cc1cn2nc(-c3nc4sc(N5CCNCC5)nc4c(=O)[nH]3)cc2c(C)n1 [Compound 267]", "REPORTED_MEASUREMENT": "100 to 1000 nM"}
{"COMPOUND": "Cc1cc(-c2nn3c(=O)cc(N4CCNCC4)nc3s2)cc2cn(C)nc12 [Compound 206]", "REPORTED_MEASUREMENT": "1000 to 10000 nM"}
{"COMPOUND": "Cc1c(O)c(-c2nc3c(=O)n(C4CCNCC4)cnc3s2)cc2cn(C)nc12 [Compound 283]", "REPORTED_MEASUREMENT": "1000 to 10000 nM"}
{"COMPOUND": "Cc1cc(-c2cc3cnn(C4CCNCC4)c(=O)c3s2)cc2cn(C)nc12 [Compound 802]", "REPORTED_MEASUREMENT": "100 to 1000 nM"}
{"COMPOUND": "O=c1c2sc(-c3ccc(-c4cn[nH]c4)cc3O)nc2ncn1C1CCNCC1 [Compound 334]", "REPORTED_MEASUREMENT": "> 10000 nM"}
{"COMPOUND": "Cc1cc(-c2nn3c(=O)cc(N4CCN(C)CC4)nc3s2)cc2cn(C)nc12 [Compound 210]", "REPORTED_MEASUREMENT": "1000 to 10000 nM"}
